These measurements were taken from patent US20230115257A1.

Exercise: state measured pEC50 for each of the binders provided.
test_target: SARS-CoV-2 Beta (B.1.351) variant prefusion stabilized spike trimer protein (UniProt P0DTC2 14-1213)
test_description: ELISA
Note on pEC50: it is the negative log10 of concentration, concentration in mol/L.

Requested field: pEC50. Item: 4-C22-A (antibody, V domains shown) VH: EVQLVESGGDLVKPGGSLKLSCAASGFTFSSFGMSWVRQTPDKRLEWVATISSGGGFTYYPDSVEGRFTISRDNAKNTLYLQMSSLKSEDTAMYYCARRLYDYDWFAYWGQGTLVTVSA VL: DIVMTQSHKIMSTSVGDRVSITCKASQDVVTAVAWYQKKPGQSPKLLIHWASTRHTGVPDRFTGSGSGTDFTLTISNVQSEDLADYFCQQYSSYPLTFGAGTKLELK
9.28

Now this one: 3-K11-A (antibody, V domains shown) VH: EVQLQQSGPELVKPGASVKMSCKASGYTFTSYVMHWVKQKPGQGLEWIGYINPYNDGTEYNEKFKGKATLTSDKSSSTAYMELSSLTSEDSAVYHCAREAYRYFDVWGTGTTVTVSS VL: DIQMTQSPASLSVSVGETVTITCRASENIYSNLAWYQQKQGKYPQLLVYGATNLADGVPSRFSGSGSGTQYFLKINSLQSEDFGSYYCQHFWGIPWTFGGGTKLEIK
8.54

Now this one: 2-B20-A (antibody, V domains shown) VH: QIQLVQSGPELKKPGETVKISCKASGYTFTTYGMSWVKQAPGKGLKWMGWINTFSGLPTYADDFNGRFAFSLETSASTAYLQINNLKDEDTATYFCARVKVHDYDGDFYGMDYWGQGTSVTVSS VL: DVVLTQTPLSLPVNIGDQASISCKSTKSLLNSDGFTYLDWYLQKPGQSPQLLIYLVSNRFSGVPDRFSGSGSGTDFTLKISRVEAEDLGVYYCFQSNYLPLTFGAGTKLELK
9.64
